meta.source: the supplement of paper PMC12764529

# Assay notes: folding stability dG unfold (combined trypsin and chymotrypsin); higher = more stable
Response field class: string, computed from recorded folding stability dG unfold by ranges lo: < 0.3 kcal/mol; mid: ≥ 0.3 kcal/mol and < 2 kcal/mol; hi: ≥ 2 kcal/mol

{"Sequence code": "SAYLMFMIPIKNDEITIKIPVPPGYYVRIFVFFPDGMEPRTIPPDEKVKIKIPKPGAWIMIMVYPAEEMSAG [r14_882_TrROS]", "Answer label": "hi"}
{"Sequence code": "SAGGASFSLSEGYDPSLGKTFTRETEAPEVPVPPVTVVPLSEIGRLKAEGVPPSWTVDPETGTVTVTSAGGS [r16_194_JUSTAS]", "Answer label": "lo"}
{"Sequence code": "SETYKVTVLAEVRIYSRSPDGTWKPIGVFPVEATVEYPAEYREEAERKAVEKVEEEVRKFAESHGVVVEASA [r9_356_TrMRF]", "Answer label": "mid"}
{"Sequence code": "SAGGSMGSKKVGEIELEVEIGDEKVKVKVTLYETESPDDSVSLTLDVDVEHPNGKKISKELFEKLFSAGGSA [r2_363_TrMRF]", "Answer label": "mid"}
{"Sequence code": "SAGGSAKEVKIKFTRNPDGTLTMEITFEDGYVIRKTFTVKNGKLTEKVEVFPVKLDPETGKLVLLPSAGGSA [r15_746_TrROS_Hall]", "Answer label": "hi"}
{"Sequence code": "SAGGEMELTLTVTIKVENLTKEQIEEELRKLLEELGFEIEEITVEYDEENKTITVTVRIRLPPLEDLSAGGS [r16_287_TrROS_Hall]", "Answer label": "hi"}
{"Sequence code": "SMPPEDPGELTLVVPDTRNVTVTLPVPVPPEARVLVTFSDGRRVEAPAGTELTFTIPPGRPYVIRVEVYASA [r9_79_TrMRF]", "Answer label": "mid"}
{"Sequence code": "SAGGIKVKITDEDGEEKTFKVKDINVNKSPNNGMPSLKIKLANGRPWVIMIPPGRPLEPGDEITVRPLSAGG [r13_390_TrROS]", "Answer label": "lo"}
{"Sequence code": "SAGGSAGGSAGAPSAPRSVPEVRLLNIDIPASADDPESVELARRLARAALENDAVVVINESAGGSAGGSAGG [r11_519_TrMRF]", "Answer label": "lo"}
{"Sequence code": "SAGGSELENMSLEELLARAEELARELAEETGRTVTVTVEVRVRLPDGSTRTFRFTVTLTVLREEDLSAGGSA [r2_157_TrROS_Hall]", "Answer label": "hi"}
{"Sequence code": "SAGGSAGGSAGAPVEVVITFESPTSRTTRTFPADLPEAEVERLAAALRAAHPEPVRVEPRSAGGSAGGSAGG [r11_515_JUSTAS]", "Answer label": "lo"}
{"Sequence code": "SAGGSAGGAEITIELTEDGTLRITVDGKKLEIRLEPAPPPVEVKTERVLDPDTDELTTRTETVLSAGGSAGG [r6_34_TrROS_Hall]", "Answer label": "lo"}
{"Sequence code": "SAGGSGSQEVDIDFKFPPNFNMDELAKKIEELPGIDIKPDRYDPENGTYKITINVNDPQAVREIIRSAGGSA [r2_305_TrROS]", "Answer label": "lo"}
{"Sequence code": "SAGGSAGGSAGDKPITIFIPGTPDDIKDYIEDEGFKIKDIEIQYHKNKDGKYWVMVTIRVSAGGSAGGSAGG [r11_632_TrROS]", "Answer label": "hi"}
{"Sequence code": "SAGGSAMKIKRDNGKVRIEIDFPPEMKNPERMLMNIRSAINENPNKPIKVTMPPGHREWAKRLLKESAGGSA [r15_89_TrROS]", "Answer label": "lo"}
{"Sequence code": "SMVVVKVTASSPEEAEALAKEAEEKLKEEIEKKIKELKKKGINPKELNLNIKIEIETLSYDPANPGKNTPSA [r9_961_JUSTAS]", "Answer label": "mid"}
{"Sequence code": "SAGGMTETITGEFDDEEEAIAYAKKIVKEKYPNKNVTMEIETTYDPKTGKYKVTATITIPDEGEEHHSAGGS [r8_17_JUSTAS]", "Answer label": "hi"}
{"Sequence code": "SAGGSAMKVYKIKLEFENEETGKRVEIEAEVVEVDGELYLVMKAKVVDEETGEEKEIEIVIKLPKESAGGSA [r15_960_TrROS_Hall]", "Answer label": "hi"}
{"Sequence code": "SAGGSAGGSAGPKWKTINFPIDLKPGQSAKEIAKKFAEANPDMEIDGFNPERGWASITVPSAGGSAGGSAGG [r11_465_TrROS]", "Answer label": "lo"}
{"Sequence code": "SAGMVIPYKELKKNLSEEELIELAKEAAEKLGYKPKKIEIKETPEPDKYIVIDVIDENGNKHPIVFPSKSAG [r5_745_TrMRF]", "Answer label": "mid"}
{"Sequence code": "SAGGSAGGSKPKEIETVTLKLTLKDPETGEEIEVTVELTRVRVDGKEYLILRVTDPDGKEIELSAGGSAGGS [r12_283_TrROS_Hall]", "Answer label": "hi"}
{"Sequence code": "SAGGSADNENNENQKPKPKPKKKLEVTIPVPLPPGDSLEEAMEQAYNIANHLAQSGKLDEVEISIFSAGGSA [r15_450_TrROS]", "Answer label": "lo"}
{"Sequence code": "SAGGGPVTEETYTIKRPDGTELVVTRYYFPGTGETVVRIYPPSTKTPLSTVPLSEASPELLAEIARRSAGGS [r8_32_JUSTAS]", "Answer label": "mid"}
{"Sequence code": "SAGGSAGGSAGMKVKSIKKLSKDPKNGKETFEITIPENGEKVTIETEPGKFEEVKKKLLKSAGGSAGGSAGG [r17_111_JUSTAS]", "Answer label": "lo"}
{"Sequence code": "SAGGKIREVEIEEFDPDNGWVMITFNMPPEDLDKMKPIKLPGIKDVHWDPGNDHISASMPLEEAKEASAGGS [r16_614_TrROS]", "Answer label": "lo"}
{"Sequence code": "SAGGSAGGSAGAAVSPEELKEKAKKEGYDGEVVVTRLPDGTLRVTVKDKGKKSEITVPLESAGGSAGGSAGG [r11_410_JUSTAS]", "Answer label": "mid"}
